PROTOCOL TEXT: yeast display, Sf9 membrane polyspecificity reagent, FACS + sequencing; frameworks hold sequencing errors

SEQ STRING: QVQLQESGGGLVQAGGSLRLSCAASGSLFLFYTMGWYRQAPVIEREFVAGITLGTTTYNADSVKGRFTISRDNVKNTVFLQMNSLKPEDTAVYYCAVAVGHYTEFWYWGQGTQVTMSS
polyreactivity (PSR sort gate): high polyreactivity
--
SEQ STRING: QVHLVVSGGGLVQAGGSLRLSCAAYGRTFRIYAMGWYRQAPGKDRELVARITKRAGSTYYADSVKGRFTISRDNAKNTVYLQMNRLKPEDTSVYYCAADVRVQYRQDLTYDYWGQGTQVTVSS
polyreactivity (PSR sort gate): high polyreactivity

###

PROTOCOL TEXT: yeast display, Sf9 membrane polyspecificity reagent, FACS + sequencing; frameworks hold sequencing errors
QUANTITY KIND: polyreactivity (PSR sort gate)

SEQ STRING: QVQLHESGRGLVQAGGSLRLSCAASGTISYAGQMGWYRQAPGKEREFVAAIGVGSNTNYADIVKGRYTIIRYNAKNSVYLQIISLKPEDTAVYYCAVGCYAPLGRPFWGQGTQVTVSS
polyreactivity (PSR sort gate): low polyreactivity
--
SEQ STRING: QVQLVESGGGLVQAGGSLRLSCAASGIIFEYYAMGWYRQAPGKERELVAAISKRGGSTYYADSVKGRFTISRDNAKNTVYLQMNSLKPEDTAVYYCNARRRYYSGPVYLHYRVNYWGQGTQVTVSS
polyreactivity (PSR sort gate): high polyreactivity
--
SEQ STRING: QVQLVESGGGLVQAGGSLRLSCAASGSTFGPYAMGWYRQAPGKERELVAAISRRGTSTYYADSVKGRFTISRDNAKNTVYLQMISLKPEDTAVYYCAADRLLYGGGREYWGQGTQVTVSS
polyreactivity (PSR sort gate): high polyreactivity
--
SEQ STRING: HVQLVESGGGLFQAGGSLRLICAASGSTFGFYAMGWYRQAPGKERELVAAISRRTGSTYYADSVKGRFTISRDNAKNTVYLQMNSLKPEDTAVYYCNTDQSQKTVGYDYWGQGTQVTVSS
polyreactivity (PSR sort gate): high polyreactivity
--
SEQ STRING: QVQLVESGGGLVQAGGSLRLSCAASGRIIRAYAMGWYRQAPGKERELVAAISGGSNTNYADSVKGRFKISRDNAKNTVYLQMNSLKPDDTAVYYCAADAGYWESLWYPYGFYWGQGTQVSVSS
polyreactivity (PSR sort gate): low polyreactivity
--
SEQ STRING: QVQLVESGGGLVQARGSLRLSCAASGSTFQYTMGCYRQAPRTERELVAAITSTGGSTYYADSVKGRFTISRDNAKNTVYLQRNSLKAEDTAVYYWNADYFGGGDYWGQGTQVTVSS
polyreactivity (PSR sort gate): low polyreactivity

Request: Dear colleague, I am looking for the recorded polyreactivity (PSR sort gate) of the following sequence: `QVQLQESGGGLVQAGGSLRLSCAASGSIFLLHIMCWYRQAPGKERESVAAISYGTSTYYADSVNGRFTICRDNAKNTVYLQMNSPKPDDTAVYYCAALFLVSKHHHFWGEGTQVTVSS`
Result: low polyreactivity

Request: Dear colleague, I am looking for the recorded polyreactivity (PSR sort gate) of the following sequence: `QVQLVESGGGLVQAGGSLRLSCAASGYIFVPYAMGWSRQAPGKERELVAAISRGGNTNYADSVKGRFTISRDNAKNTVYLQMNSLKPEDTAVYYCNADLVQYWGRRRWYDYWGQGTQVTVSS`
Result: low polyreactivity

Request: Dear colleague, I am looking for the recorded polyreactivity (PSR sort gate) of the following sequence: `QVQLVESGGGLVQAGGSLRLSCAASGFTISKYAMGWYRQAPGKERELVAVISSGGRTNYADSVKGRFTISRDNAKNTVYLQMNSLKPEDTAVDYCAAIGWRTRSRFEYWGQGTQVTVSS`
Result: high polyreactivity

Request: Dear colleague, I am looking for the recorded polyreactivity (PSR sort gate) of the following sequence: `QVQLEESGGGLVQAGDSLRLSCDASGSTFPGYAMGWYRPAPGKERELVAAIYKRGGSTRYADSVKGRFTISRDNAKNTVYLQMNSLKPEDTAVYYCAASYSYSGSGGGYWGQGTQVTVSS`
Result: high polyreactivity

Request: Dear colleague, I am looking for the recorded polyreactivity (PSR sort gate) of the following sequence: `QVQLVESGGGLVQAGGSLRLSCAASGFIISVYAMGWYRQAPGKERELVARIDSGGSTYYADSVKGRFTISRDNAKNTVYLQMNSLKPEDTAVYYCATDEGTVGGQQLRPLMDYWGQGTQVTVSS`
Result: low polyreactivity
